- Test system: SW-620 colon
- assay-name: NCI-60 one-dose screen, 48 h (100 = growth as untreated, 0 = no growth, -100 = all killed)
- conditions-used: 10 µM unless noted
Compounds without any hit were thinned out: in the full panel of roughly 83,000, 20% have a hit.
experimental-readout: growth (%)
Unit % implied. Number only.

- compound: "C#Cc1cccc(Nc2nc(Cl)nc3cc(NC(=O)CCl)ccc23)c1"
  observed: -77.8
- compound: "CCCCCCC/C=N/NC(=O)c1ccc(-n2cc(-c3ccccc3)nn2)cc1"
  observed: 95.6
- compound: "C=C1/C(=C\\C=C2/CCC[C@]3(C)[C@@H]([C@H](C)CCCC(C)(C)O)CC[C@@H]23)C[C@@H](OC(=O)CBr)C[C@@H]1O"
  observed: 70.7
- compound: "COc1ccc(C2=NN3C(C2)c2cc(Br)ccc2OC3c2ccncc2)cc1 (stereo not given)"
  observed: 90.7
- compound: "COc1ccc(-c2cc(-c3ccc(N(C)C)cc3)nc(NC(=O)c3cccnc3)n2)cc1"
  observed: 101

Recall and state the measured growth for "CCc1ccc(Cc2cnc(NC(=O)c3cc(C)oc3C)s2)cc1" . 18.3

Give recorded growth. COc1cc(C2=Nc3c(N)nc(N)nc3NC(c3cccc(Nc4ccnc5cc(C(F)(F)F)ccc45)c3)C2)cc(OC)c1OC (stereo not given) 78.7

Give growth for "CN(CCNc1ccc(C(=N)N)cc1)c1ccc(C(=N)N)cc1" 98.6

Look up and state reported growth for "CSc1nn2c(-c3cc4cc(Br)ccc4oc3=O)ccnc2c1C#N" 103

Hello, please tell me recorded growth for this one: "N#CSCc1cc(Cl)c(CSC#N)cc1Cl" 20.6

Please report the measured growth for "O=C(Nc1ncc(Cc2ccccc2Cl)s1)c1ccc2c(c1)OCCO2" 31.9

Specify growth for "C=CC(=O)Nc1ccc2ncnc(Nc3cccc(NS(=O)(=O)CCC)c3Cl)c2c1" and stop. 74.4
